Reference source: patent US20120135923A1

Target: T1, hMC1-R (human, UniProt Q01726 1-317)
T1 construct: whole, on cells; Assayed as membranes of CHO-K1 cells expressing the receptor; also called hMC-R receptor subtype 1; melanocyte-specific receptor (MC1-R)
T1 sequence (Q01726 whole entry): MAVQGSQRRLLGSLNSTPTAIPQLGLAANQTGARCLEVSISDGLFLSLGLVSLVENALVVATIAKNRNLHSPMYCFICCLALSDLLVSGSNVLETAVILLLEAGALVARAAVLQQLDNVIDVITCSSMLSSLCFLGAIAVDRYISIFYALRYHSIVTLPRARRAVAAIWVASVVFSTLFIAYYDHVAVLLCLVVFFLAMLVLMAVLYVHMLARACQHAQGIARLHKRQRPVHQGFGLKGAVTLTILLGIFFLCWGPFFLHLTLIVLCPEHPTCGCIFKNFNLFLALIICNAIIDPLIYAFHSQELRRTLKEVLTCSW
Experiment: competition with [125I]-NDP-α-MSH, CHO-K1 membranes
Bridge positions count the residues as written; N and C are the ends. Square brackets hold non-standard residues; d marks the D form. 2Nal = N[C@@H](Cc1ccc2ccccc2c1)C(=O)O; dChg = N[C@@H](C(=O)O)C1CCCCC1; dTle = CC(C)(C)[C@@H](N)C(=O)O; Chg = N[C@H](C(=O)O)C1CCCCC1; Nle = CCCC[C@H](N)C(=O)O; GABA = NCCCC(=O)O
Below is a list of entries, each paired with its recorded pKi value.
// field semantics: pKi = negative decimal log of concentration (mol/L)

Some solved cases for reference:
Exercise: Need pKi of Ac-[Nle]C[dTle]H[dF]RWC-NH2 (disulfide 2-8) [Ac-Nle-c(Cys-D-Tle-His-D-Phe-Arg-Trp-Cys)-NH2] , thanks.
Key: 7.92

Exercise: Need pKi of Ac-CEH[dF]R[2Nal]AC-NH2 (disulfide 1-8) [Ac-c(Cys-Glu-His-D-Phe-Arg-2-Nal-Ala-Cys)-NH2] , thanks.
Key: 6.58

Exercise: Need pKi of Ac-[Nle]C[dA]H[dF]RWAC-NH2 (disulfide 2-9) [Ac-Nle-c(Cys-D-Ala-His-D-Phe-Arg-Trp-Ala-Cys)-NH2] , thanks.
Key: 8.04

Exercise: Need pKi of Ac-[dChg]DH[dF]RW[GABA]K-NH2 (lactam 2-8) [Ac-D-Chg-c(Asp-His-D-Phe-Arg-Trp-Gaba-Lys)-NH2] , thanks.
Key: 9.64

Exercise: Need pKi of Ac-[Nle]C[dV]H[dF]RWC-NH2 (disulfide 2-8) [Ac-Nle-c(Cys-D-Val-His-D-Phe-Arg-Trp-Cys)-NH2] , thanks.
Key: 7.89

Please find the next binder below.
Exercise: Need pKi of Ac-[Chg]DH[dF]RW[GABA]K-NH2 (lactam 2-8) [Ac-Chg-c(Asp-His-D-Phe-Arg-Trp-Gaba-Lys)-NH2] , thanks.
Key: 9.05
